Assay: yeast TOR pathway RPL19A-GFP modulators, primary screen, cell-based, S. cerevisiae, multiplex flow cytometry (AID 1862);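 further: lower values mimic rapamycin by blocking the RPL19A rise seen in DMSO cells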
Conditions: S. cerevisiae RPL19A-GFP strain, flow cytometry fluorescence, 3 h; at 10 µM; active compounds read low
Records with an inconclusive call do not appear.
measured-quantity: percent of DMSO control GFP (%)
Note: unit % is implicit; provide only the numeric part.

Solved cases (5 shown):
compound: CCOc1ccc(N2C(=O)NC(=O)/C(=C\c3cc(OC)c(OC)cc3[N+](=O)[O-])C2=O)cc1
percent of DMSO control GFP / %: 102
--
compound: C[C@H]1OC[C@@H](C[N+](C)(C)C)O1
percent of DMSO control GFP / %: 100
--
compound: CC[C@@H](CO)NC(=O)[C@@H]1C=C2c3cccc4c3c(cn4C)C[C@H]2N(C)C1
percent of DMSO control GFP / %: 103
--
compound: Nc1ccncc1
percent of DMSO control GFP / %: 97.9
--
compound: C[N+]1(C)[C@@H]2CC[C@H]1CC(OC(=O)C(CO)c1ccccc1)C2 (some centres not stated)
percent of DMSO control GFP / %: 105

Fill in reported percent of DMSO control GFP for this entry: "O=c1[nH]c2ccccc2n1CCCN1CCC(n2c(=O)[nH]c3cc(Cl)ccc32)CC1" 99.1

Fill in reported percent of DMSO control GFP for this entry: "C=C1CC[C@@]2(O)[C@H]3Cc4ccc(O)c5c4[C@@]2(CCN3CC2CC2)[C@H]1O5" 107

Fill in reported percent of DMSO control GFP for this entry: "NNC(=O)c1ccc(Cl)cc1" 102

Fill in reported percent of DMSO control GFP for this entry: CC(C)(C)C(O)C(Oc1ccc(Cl)cc1)n1cncn1 (configuration not stated) 105

Fill in reported percent of DMSO control GFP for this entry: "C[C@H]1CCC[C@H](O)CCCCCc2cc(O)cc(O)c2C(=O)O1" 104

Fill in reported percent of DMSO control GFP for this entry: C#CCN(C)C(C)Cc1ccccc1 (configuration not stated) 100

Fill in reported percent of DMSO control GFP for this entry: COc1ccccc1CN1CCCCC1c1cccnc1 (configuration not stated) 104

###

# Lookup of reported inhibition keyed by entry
System: Botulinum neurotoxin type F light chain protease (Clostridium botulinum)
Assay: Botulinum neurotoxin type F light chain protease inhibition, multiplex microsphere flow cytometry, validation set (AID 588459)
Settings: multiplex microsphere protease substrate cleavage assay, at 10 µM, active compounds read high
Note: unit % is implicit; provide only the numeric part.

compound: COc1cc(C2Nc3ccccc3NC3=C2C(=O)CC(c2ccc(OC)c(OC)c2)C3)ccc1O (configuration not stated)
inhibition [%]: -5.5

Fill in reported inhibition for this entry: Cc1ccc2c(c1)C(O)(C1COC(C)(C)CC1=O)C(=O)N2C (configuration not stated) -1.1

Fill in reported inhibition for this entry: COc1ccc2[nH]c(CN3CCN(CC(C)C)C(CCO)C3)c(C)c2c1 (configuration not stated) 2.4

Fill in reported inhibition for this entry: "COc1ccc(CCCC(=O)O)c(C)c1" -0.2

Fill in reported inhibition for this entry: "COc1ccc(C)cc1S(=O)(=O)Nc1ccc(F)cc1" 1.1

Fill in reported inhibition for this entry: "NCC1(c2ccc3c(c2)OCCO3)CCCC1" 0.5

Fill in reported inhibition for this entry: CS(=O)c1ccccc1O (configuration not stated) 1.4

Fill in reported inhibition for this entry: "N#Cc1cc2c([nH]c1=O)CCCC2" -0.1

Fill in reported inhibition for this entry: COc1ccc2c3c([nH]c2c1)C1(NCC3)C(=O)Nc2ccccc21 (configuration not stated) -3

Fill in reported inhibition for this entry: "CCc1cc2c(=O)c(-c3ccc(F)cc3)c(C)oc2cc1OCC(=O)O" 3.9

Fill in reported inhibition for this entry: "CC(=O)c1ccc(CCCCCCCCCC(=O)O)s1" 1.9

Fill in reported inhibition for this entry: "CCOC(=O)c1ccc(NC(=S)NCCc2ccccc2F)cc1" 4.9

###

Assay: modulators of MEP2-GFP levels in yeast, primary screen, S. cerevisiae, multiplex flow cytometry (AID 1867);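 further: median GFP channel fluorescence of barcode-gated MEP2-GFP cells measured by flow cytometry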
Conditions: S. cerevisiae MEP2-GFP strain, 3 h, at 10 µM, active compounds read high
Inconclusive results are not listed. The source made the active and inactive calls.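 How the source made its calls: active means GFP response, as percent of the DMSO control, above the screen-wide mean plus 3 SD, about 139; inconclusive means no response measured because the compound's own fluorescence interfered; inactive means the rest.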
# Lookup of reported GFP response vs DMSO keyed by entry

Solved cases (3 shown):
compound: COP(=O)(OC)C(O)C(Cl)(Cl)Cl (stereo unspecified)
endpoint-value: 98.3% (inactive)
--
compound: COc1ccc(NC2=NCC(C)S2)cc1 (stereo unspecified)
endpoint-value: 101% (inactive)
--
compound: c1ccc2c3c([nH]c2c1)CNCC3
endpoint-value: 104% (inactive)

Fill in reported GFP response vs DMSO for this entry: "NCCc1c[nH]c2ccc(F)cc12" 103% (inactive)

Fill in reported GFP response vs DMSO for this entry: CN1C(=O)N(C)C(=O)C2(Cc3ccccc3N3CCOCC32)C1=O (stereo unspecified) 103% (inactive)

Fill in reported GFP response vs DMSO for this entry: "Cc1cc2c(C(C)C)c(O)c(O)c(C=O)c2c(O)c1-c1c(C)cc2c(C(C)C)c(O)c(O)c(C=O)c2c1O" 103% (inactive)

###

Experiment: modulators of MEP2-GFP levels in yeast, primary screen, S. cerevisiae, multiplex flow cytometry (AID 1867);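 further: median GFP channel fluorescence of barcode-gated MEP2-GFP cells measured by flow cytometry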
Settings: S. cerevisiae MEP2-GFP strain, 3 h, at 10 µM, active compounds read high
Inconclusive results are not listed.
# Lookup of reported GFP response vs DMSO keyed by entry
Note: unit % is implicit; provide only the numeric part.

compound: C[C@@H]1O[C@@H](O[C@H]2C[C@@H](O)[C@]3(CO)[C@H]4[C@H](O)C[C@]5(C)[C@@H](C6COC(=O)C6)CC[C@]5(O)[C@@H]4CC[C@]3(O)C2)[C@H](O)[C@H](O)[C@H]1O (stereo not given in full)
GFP response vs DMSO (%): 102
//
compound: CCN(CC)CCOC(=O)C(O)(c1ccccc1)c1ccccc1
GFP response vs DMSO (%): 108
//
compound: CC(C)[C@H]1C(=O)N2CCC[C@H]2[C@]2(O)O[C@](NC(=O)[C@@H]3C=C4c5cccc6[nH]cc(c56)C[C@H]4N(C)C3)(C(C)C)C(=O)N12
GFP response vs DMSO (%): 108
//
compound: [N-]=[N+]=NC1C[C@H](n2ccc(=O)[nH]c2=O)O[C@@H]1CO (stereo not given in full)
GFP response vs DMSO (%): 99.9
//
compound: O=C1CCCC2=C1C(c1cccnc1)Nc1ccccc1N2 (stereo not given)
GFP response vs DMSO (%): 95.1
//
compound: CC12CCC3C(CC=C4CC(O)CCC43C)C1C/C(=C\c1cccc(F)c1)C2=O (stereo not given)
GFP response vs DMSO (%): 103
//
compound: CN1C(=O)CN=C(c2ccc(Cl)cc2)c2cc(Cl)ccc21
GFP response vs DMSO (%): 100
//
compound: C[C@]12CC[C@@H](O)C[C@@H]1CC[C@@H]1[C@@H]2CC[C@]2(C)[C@@H](O)CC[C@@H]12
GFP response vs DMSO (%): 107

Fill in reported GFP response vs DMSO for this entry: "NNC(=O)c1ccc(Cl)cc1" 103

Fill in reported GFP response vs DMSO for this entry: Clc1ccc(COC(Cn2ccnc2)c2ccc(Cl)cc2Cl)cc1 (stereo not given) 111

###

Test: promoters of myeloid differentiation in arrested cells, primary screen, cell-based, GFP/MAC1 double positive, flow cytometry, validation set (AID 588685);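 further: compound exposure lasts four days before antibody staining and flow analysis; 0% = DMSO wells and 100% = 5 µM fulvestrant positive control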
Details: ER-HoxA9 marrow cells, active compounds read high
# Lookup of reported differentiation response keyed by entry
Note: unit % is implicit; provide only the numeric part.

Solved cases (8 shown):
molecule: CCC(COC(=O)c1cc(OC)c(OC)c(OC)c1)(c1ccccc1)N(C)C (configuration not stated)
unit-descriptor: %
differentiation response: -3.02

molecule: COc1ccc(Cc2nccc3cc(OC)c(OC)cc23)cc1OC
unit-descriptor: %
differentiation response: 6.49

molecule: C[C@@H]1O[C@@H](O[C@H]2C[C@@H](O)[C@]3(CO)[C@H]4[C@H](O)C[C@]5(C)[C@@H](C6COC(=O)C6)CC[C@]5(O)[C@@H]4CC[C@]3(O)C2)[C@H](O)[C@H](O)[C@H]1O (some centres not stated)
unit-descriptor: %
differentiation response: -4

molecule: C#CCN(C)C(C)Cc1ccccc1 (configuration not stated)
unit-descriptor: %
differentiation response: 15.9

molecule: C[C@]12CCC(=O)C=C1CC[C@@H]1[C@@H]2C(=O)C[C@]2(C)C(=O)CC[C@@H]12
unit-descriptor: %
differentiation response: 5.85

molecule: CC(C)[C@@]1(NC(=O)[C@@H]2C[C@@H]3c4cccc5[nH]cc(c45)C[C@H]3N(C)C2)O[C@@]2(O)[C@@H]3CCCN3C(=O)[C@H](Cc3ccccc3)N2C1=O
unit-descriptor: %
differentiation response: 4.09

molecule: CCC1(c2ccccc2)C(=O)N(COC)C(=O)N(COC)C1=O
unit-descriptor: %
differentiation response: 3.88

molecule: c1ccc2c(c1)[nH]c1cnccc12
unit-descriptor: %
differentiation response: 2.2

Fill in reported differentiation response for this entry: "NCCc1ccc(O)cc1" -11.9

Fill in reported differentiation response for this entry: "O=c1[nH]c2ccccc2n1C1CCN(CCCC(c2ccc(F)cc2)c2ccc(F)cc2)CC1" 13.7
